- target-desc: Endothelial PAS domain-containing protein 1 (Homo sapiens) (UniProt Q99814)
- test-method-notes: HIF-2a and HIF-1a reporter inhibition panel, dose response, selectivity assay for HIF-2a inhibitor project, cell-based, luminescence (AID 651581)
- condition-info: HIF-2a, run 1
Give measured IC50 for each item. Keep answers brief.

INSERT INTO results (compound, value_reported) VALUES
  ('O=[N+]([O-])C1C(c2ccccc2)C12c1ccccc1-c1ccccc12 (stereo unspecified)', '7.84 µM');

For each of the items listed, what is its IC50?
1. COc1ccc(OC)c(S(=O)(=O)ON2C(=O)c3ccccc3C2=O)c1
2. Cc1ccc(NC(=S)NNc2ncc(C(F)(F)F)cc2Cl)cc1
3. O=C(NCc1ccccc1)C(=O)Nc1cccc(C(=O)O)c1
4. COc1ccc(/C=N\n2nnc3ccccc32)cc1

Result ::
1. 9.25 µM
2. 4.66 µM
3. 9.98 µM
4. < 30 µM

Query :: # get_value(readout='IC50', item= `Cc1csc(NC(=O)c2cn3ccccc3n2)n1` )
Result :: 7.58 µM
